Attribution: patent US10344077

Biological target: SSA
Experiment: AtheNA, Ab 25 ug/ml
value type: Athena reading (relative luminescence units)
Give bare numbers.

Challenge: Any idea what Athena reading (relative luminescence units) was measured for CH240_4A/293i (antibody, from a related filing, V domains shown) VH: QVQLVQSGTEVRKPGASVTISCKASGYTFNNFYVHWVRQAPGQGLECMGWIDPSVGRISYGQKFQGRVTMTRDRSTSTVYMGLSSLRSEDTAMYYCVRDVGTEGSLLHFDHWGQGTLVIVSA VL: EIVLTQSPATLSVSPGERATLSCRATQSVRSNLAWYQQKRGQAPRLLIYSASTRATGIPARFSGSGSGTEFTLTISSVQSEDFAVYYCLQYNNWWTFGQGTKVEIK ?
Response given: 16
